Tested on: LG0703-F948-PDC complex spheroid viability;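 further: spheroids exposed to agents for seven days before readout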
Assay: Anticancer human tumor LG0703-F948-PDC patient-derived lung adenocarcinoma cell line growth inhibition
Settings: second compound 1 µM; first compound 0.0316 µM; stronger effect = lower value
From the text: Multicellular complex tumor spheroid response to LSD1 Inhibitor Iadademstat in combination with a variety of drugs and investigational agents in selected tumor cell lines The current study was undertaken to assess response to LSD1 inhibitors in combination with standard-of-care drugs and investigational agents in solid tumor complex spheroid models as well as in the K-562 leukemia. […] Compounds. […] If the clinical Cmax for an agent had not been determined, the highest concentration tested was 10 microM. […]
// classify: if (viability, T/C < 50%) satisfied else not satisfied

Ask: Please state whether viability, T/C is below 50% for O=C(c1cc(Cc2n[nH]c(=O)c3ccccc23)ccc1F)N1CCN(C(=O)C2CC2)CC1 + NC1CCC(NC2CC2c2ccccc2)CC1
Reply: not satisfied

***
Ask: Item COc1ccc([C@@H](O)c2cc(-c3ncnc4cc(N5CCOCC5)ccc34)c(F)cc2Cl)nn1 + NC1CCC(NC2CC2c2ccccc2)CC1 : viability, T/C beneath 50%, strictly?
Reply: not satisfied

Ask: Hello, is viability, T/C of the following molecule strictly smaller than 50%? CC(C)CC(NC(=O)CNC(=O)c1cc(Cl)ccc1Cl)B1OC(=O)CC(CC(=O)O)(C(=O)O)O1 (configuration not stated) + NC1CC1c1ccc(-c2cccc(O)c2)cc1
Reply: satisfied

Ask: Quick check: viability, T/C of COc1cc(Nc2ncc3c(n2)-c2ccc(Cl)cc2C(c2c(F)cccc2OC)=NC3)ccc1C(=O)O + NC1CC1c1ccc(-c2cccc(O)c2)cc1 under 50%?
Reply: not satisfied

Ask: Quick check: does CC(C)c1c(-c2ccccc2)nc2c(C#N)c[nH]n2c1=O + NC1CC1c1ccc(-c2cccc(O)c2)cc1 have viability, T/C under 50%?
Reply: not satisfied

Ask: Determine whether this molecule shows viability, T/C lower than 50% (ties excluded): O=C(C=Cn1cnc(-c2cc(C(F)(F)F)cc(C(F)(F)F)c2)n1)NNc1cnccn1 + NC1CC1c1ccc(-c2cccc(O)c2)cc1
Reply: satisfied

Ask: Take the molecule O=C(C=Cn1cnc(-c2cc(C(F)(F)F)cc(C(F)(F)F)c2)n1)NNc1cnccn1 + NC1CCC(NC2CC2c2ccccc2)CC1 and say whether its viability, T/C is less than 50%.
Reply: satisfied
